The reported numbers originate from paper PMC4336329.

Property: hERG current change (%, negative = inhibition) at 10uM; scope: individual molecules
Target: human ether-à-go-go-related gene (hERG) potassium channel (human, UniProt Q12809);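 further: peak tail current of the secondary pulse compared with the same well before compound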
Sequence (Q12809 whole entry, looked up): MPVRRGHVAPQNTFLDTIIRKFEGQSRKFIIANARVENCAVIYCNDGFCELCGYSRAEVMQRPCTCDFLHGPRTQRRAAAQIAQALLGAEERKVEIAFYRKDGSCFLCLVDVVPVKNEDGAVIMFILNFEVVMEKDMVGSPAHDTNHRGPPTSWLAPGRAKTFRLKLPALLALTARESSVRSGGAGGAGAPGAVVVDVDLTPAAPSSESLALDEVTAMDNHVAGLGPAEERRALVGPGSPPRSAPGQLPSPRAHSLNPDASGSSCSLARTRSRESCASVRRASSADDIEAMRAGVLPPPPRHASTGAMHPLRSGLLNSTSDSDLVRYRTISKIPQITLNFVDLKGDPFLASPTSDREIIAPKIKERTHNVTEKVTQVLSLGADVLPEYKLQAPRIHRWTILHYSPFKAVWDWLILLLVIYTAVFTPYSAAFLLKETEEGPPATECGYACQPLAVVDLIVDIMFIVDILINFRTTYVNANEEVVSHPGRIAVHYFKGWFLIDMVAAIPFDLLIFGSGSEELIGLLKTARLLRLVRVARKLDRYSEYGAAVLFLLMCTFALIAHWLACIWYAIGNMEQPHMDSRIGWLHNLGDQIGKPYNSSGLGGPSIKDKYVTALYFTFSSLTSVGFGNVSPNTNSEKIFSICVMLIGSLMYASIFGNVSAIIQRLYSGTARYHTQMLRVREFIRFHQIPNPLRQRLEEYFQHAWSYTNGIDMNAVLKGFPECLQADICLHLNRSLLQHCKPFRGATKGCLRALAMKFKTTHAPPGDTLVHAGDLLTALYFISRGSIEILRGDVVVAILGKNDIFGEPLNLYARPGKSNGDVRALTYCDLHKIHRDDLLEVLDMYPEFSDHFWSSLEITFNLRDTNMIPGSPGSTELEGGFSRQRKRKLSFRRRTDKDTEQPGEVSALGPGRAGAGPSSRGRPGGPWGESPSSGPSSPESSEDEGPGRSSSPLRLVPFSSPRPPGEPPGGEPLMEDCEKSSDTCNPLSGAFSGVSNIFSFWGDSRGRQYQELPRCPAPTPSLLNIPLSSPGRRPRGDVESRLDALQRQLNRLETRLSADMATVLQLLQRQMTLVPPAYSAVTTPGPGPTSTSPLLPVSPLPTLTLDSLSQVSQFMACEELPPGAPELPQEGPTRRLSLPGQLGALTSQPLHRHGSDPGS
Assay: primary screen, population patch clamp on CHO cells stably expressing hERG; higher = less effect of the substance
Hit rate of the full screen: of about 310,000 compounds, about 14,000 (4.5%) showed an effect of 50% or more. Effects have a minus sign here. Only a selection was taken, and strong results are over-represented in it overall.
attribute-measured: hERG current change (%, negative = inhibition) at 10uM (%)

molecule	unit-descriptor	numeric-readout
Cc1ccc2occ(/C=N/NC(=O)[C@@H](N)Cc3ccccc3)c(=O)c2c1.Cl	%	-22.5
C=CCn1c(=O)c2ccccc2n2c(SCc3nc4ccccc4s3)nnc12	%	-34.4
COC(=O)CN=C1OC(=O)N2C(=O)C3=C4[C@@H](C[C@H]5C(=O)N(c6ccccc6)C(=O)[C@H]5[C@H]4[C@@]12Cc1ccccc1)[C@H]1C(=O)N(c2ccccc2)C(=O)[C@H]1[C@H]3C	%	4.25
O=C1CCC([N+](=O)[O-])C(c2ccc(Br)cc2)N1 (stereo not shown)	%	7.57

---

Target: human ether-à-go-go-related gene (hERG) potassium channel (human, UniProt Q12809);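 further: peak tail current of the secondary pulse compared with the same well before compound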
Experiment: primary screen, population patch clamp on CHO cells stably expressing hERG; higher = less effect of the substance
Out of some 310,000 compounds screened, about 14,000 (4.5%) showed an effect of 50% or more. The effect is printed as a negative number. The sample as a whole holds a higher share of strong results than the screen did.
Property: hERG current change (%, negative = inhibition) at 10uM; scope: individual compounds
attribute-measured: hERG current change (%, negative = inhibition) at 10uM (%)

compound	target-or-test-system	unit-descriptor	numeric-readout
CCCN1CCN(CCCNC(=O)c2ccc3nc(N4CCC(C)CC4)sc3c2)CC1	human ether-à-go-go-related gene (hERG) potassium channel (human, UniProt Q12809)	%	-50.7
CC1CCN(c2nc3ccc(C(=O)O)cc3s2)CC1	human ether-à-go-go-related gene (hERG) potassium channel (human, UniProt Q12809)	%	22.8
CCOC(CNC(=O)c1ccc2nc(N3CCC(C)CC3)sc2c1)OCC	human ether-à-go-go-related gene (hERG) potassium channel (human, UniProt Q12809)	%	10.6
CC1CCCC(C)N1CCCNC(=O)c1ccc2nc(N3CCCCC3)sc2c1 (centres unmarked)	human ether-à-go-go-related gene (hERG) potassium channel (human, UniProt Q12809)	%	-38
O=C(Nc1ccc(Cc2ccncc2)cc1)c1ccc(N2CCOCC2)c([N+](=O)[O-])c1	human ether-à-go-go-related gene (hERG) potassium channel (human, UniProt Q12809)	%	-59.1

---

Property: hERG current change (%, negative = inhibition) at 10uM; scope: individual compounds
Biological target: human ether-à-go-go-related gene (hERG) potassium channel (human, UniProt Q12809);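 further: peak tail current of the secondary pulse compared with the same well before compound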
Experiment: primary screen, population patch clamp on CHO cells stably expressing hERG; higher = less effect of the substance
Experimental: Briefly, Chinese hamster ovary (CHO) cells stably expressing the hERG channel were dislodged from tissue culture flasks and dispensed into PPC plates. […] During the recording, background leak currents were estimated by a 100 ms step to -80 mV from an initial holding potential of -70 mV and subtracted from the subsequent current measurement. The campaign was conducted in two phases using slight differences in recording protocol. […]
About 14,000 (4.5%) of roughly 310,000 compounds showed an effect of 50% or more. The effect is printed as a negative number. This is one part of a sample in which strong results are shown more often than they occur.
attribute-measured: hERG current change (%, negative = inhibition) at 10uM

compound	result
COc1cccc(CC(=O)N2CCCC(CO)(Cc3ccc(F)cc3F)C2)c1 (centres unmarked)	-0.432%
CCOC(=O)N1CCC(NC(=O)c2cn(-c3ccc(OC)cc3)c(=O)c3ccccc23)CC1	-6.75%
Cc1cc(C(=O)CSc2nnc(-c3ccc(Cl)cc3)n2C)c(C)n1CC1CCCO1 (centres unmarked)	8.08%
CC(Sc1nc(N)cc(=O)[nH]1)C(=O)NC1CCCCC1 (centres unmarked)	-4%
CC(=O)OCc1cc(-c2nc3ccccc3[nH]c2=O)nn1-c1ccc(Cl)cc1	18%
CCOC(=O)N1CCC(NC(=O)c2cccc3c2C(=O)N(CCOC)C3)CC1	-1.34%
CC(NC(=O)Cn1cnnn1)C12CC3CC(CC(C3)C1)C2 (centres unmarked)	7.75%
CCOC(=O)N1CCC(N2Cc3cccc(C(=O)NCc4ccc(C)cc4)c3C2=O)CC1	-42.6%
CCOC(=O)c1ccccc1NC(=O)c1cccc2c1C(=O)N(C1CCN(C(=O)OCC)CC1)C2	-30.4%
COC(=O)c1ccc(CN2CCCC(CO)(Cc3ccc(F)cc3F)C2)cc1 (centres unmarked)	-42.3%
CCOC(=O)N1CCC(NC(=O)c2cccc3c2C(=O)N(c2ccc(OC)cc2)C3)CC1	-58.3%
Cn1c(=O)[nH]c(=O)c2c1nc(CN1CCN(c3ccccc3F)CC1)n2CCCc1ccccc1	-33.7%
CCOC(=O)N1CCC(N2Cc3cccc(C(=O)NCc4ccc(OC)cc4)c3C2=O)CC1	-40%
CCCCCCNC(=O)CCNS(=O)(=O)c1ccc(C)cc1	-12.8%
OCC1(Cc2ccc(F)cc2F)CCCN(Cc2ccc(Cl)cc2)C1 (centres unmarked)	-74.6%
CN1C(=O)CSC1=NCC12CC3CC(CC(C3)C1)C2	-19.6%
CCCNC(=O)CN(C)S(=O)(=O)c1c(C)cc(C)cc1C	6.62%
Cc1ccc(-c2nn(C)c(=O)c3ccccc23)cc1CNC(=O)c1ccco1	-36.7%
CCc1ccc(/C=C2\SC(=S)N(CCCC(=O)Nc3nccs3)C2=O)cc1	8.83%
CCOc1cc(CN2CCCC(CO)(Cc3ccc(F)cc3F)C2)ccc1OC (centres unmarked)	-55.9%
